Target: T1, human DLL3 (ACRO, DLL3-H52H4) (human, UniProt Q9NYJ7 27-479)
T1 construct: bought antigen of the Biacore assay; construct not described
T1 sequence (looked up): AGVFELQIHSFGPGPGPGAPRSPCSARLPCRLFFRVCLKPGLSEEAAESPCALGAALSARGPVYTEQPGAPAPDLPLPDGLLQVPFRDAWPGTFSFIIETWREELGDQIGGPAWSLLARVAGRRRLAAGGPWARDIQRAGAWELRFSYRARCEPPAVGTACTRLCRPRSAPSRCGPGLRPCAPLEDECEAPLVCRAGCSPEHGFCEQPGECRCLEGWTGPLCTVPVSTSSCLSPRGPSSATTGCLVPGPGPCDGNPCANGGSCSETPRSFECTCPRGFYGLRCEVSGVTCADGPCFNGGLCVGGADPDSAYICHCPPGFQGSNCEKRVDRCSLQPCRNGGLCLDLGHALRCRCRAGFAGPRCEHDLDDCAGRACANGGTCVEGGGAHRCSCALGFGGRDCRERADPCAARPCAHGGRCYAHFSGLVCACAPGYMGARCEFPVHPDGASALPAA
Test: SPR (Biacore 8K), antibody captured on Protein A chip, 1:1 fit
Reported koff values are given for each entry in this list.
Expressed in s⁻¹, but write only the number.

The examples below pair each entry with its known result.
INSERT INTO assay_data (binder, measurement_unit, readout_value) VALUES
  ('hAb100L2H1 (antibody, human IgG1, kappa, V domains shown) VH: EVQLVESGGGLVKPGGSLRLSCAASGFTFSDSGMHWIRQAPGKGLEWVSYISSGSSTIHYADTVKGRFTISRDNAKNSLYLQMNSLRAEDTAVYYCASPLYYYGRSYNAVAYWGQGTTVTVSS VL: DIQMTQSPSSLSASVGDRVTITCHASQNINVWLSWYQQKPGKIPKLLIYKASDLHTGVPSRFSGSGSGTDFTLTISSLQPEDVATYYCQQGQSYPLTFGGGTKVEIKR', 's⁻¹', 0.000629),
  ('hAb100L2H4 (antibody, human IgG1, kappa, V domains shown) VH: EVQLVESGGGLVKPGGSLRLSCAASGFTFSDSGMHWIRQAPGKGLEWVAYISSGSSTIHYADTVKGRFTISRDNAKNSLYLQMNSLRAEDTAVYYCASPLYYYGRSYNGVAYWGQGTTVTVSS VL: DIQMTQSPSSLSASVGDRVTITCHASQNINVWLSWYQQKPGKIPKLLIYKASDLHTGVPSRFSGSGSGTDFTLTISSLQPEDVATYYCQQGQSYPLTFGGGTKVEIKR', 's⁻¹', 0.000655),
  ('hAb100L1H3 (antibody, human IgG1, kappa, V domains shown) VH: EVQLVESGGGLVKPGGSLRLSCAASGFTFSDSGMHWIRQAPGKGLEWVAYISSGSSTIHYADTVKGRFTISRDNAKNSLYLQMNSLRAEDTAVYYCASPLYHYGRSYNAVAYWGQGTTVTVSS VL: DIQMTQSPSSLSASVGDRVTITCHASQNINVWLSWYQQKPGKVPKLLIYKASDLHTGVPSRFSGSGSGTDFTLTISSLQPEDVATYYCQQGQSYPLTFGGGTKVEIKR', 's⁻¹', 0.000352);

We now examine a further binder.
### Prompt Item M100CHI (antibody, human IgG1, kappa, V domains shown, murine variable regions on human IgG1 / kappa constant regions; also called chimeric antibody of mAb100) VH: EVQLVESGGGLVKPGGSLKLSCAASGFTFSDSGMHWIRQAPEKGLEWVAYISSGSSTIHYADTVKGRFTISRDNAKNTLFLQMTSLRSEDTAMYYCASPLYYYGRSYNAVAYWGQGTSVTVSS VL: DIQMNQSPSSLSASLGDTITITCHASQNINVWLSWYQQKPGNIPKLLIYKASDLHTGVPSRFSGSGSGTGFTLTISSLQPEDIATYYCQQGQSYPLTFGGGTKLEIKR has what recorded koff?
### Response 0.000546
